Target: T1, Recombinant human MASP1 enzyme (fragment corresponding to amino acids 297-699, C-terminal His Tag) (human, UniProt P48740 297-699)
T1 sequence: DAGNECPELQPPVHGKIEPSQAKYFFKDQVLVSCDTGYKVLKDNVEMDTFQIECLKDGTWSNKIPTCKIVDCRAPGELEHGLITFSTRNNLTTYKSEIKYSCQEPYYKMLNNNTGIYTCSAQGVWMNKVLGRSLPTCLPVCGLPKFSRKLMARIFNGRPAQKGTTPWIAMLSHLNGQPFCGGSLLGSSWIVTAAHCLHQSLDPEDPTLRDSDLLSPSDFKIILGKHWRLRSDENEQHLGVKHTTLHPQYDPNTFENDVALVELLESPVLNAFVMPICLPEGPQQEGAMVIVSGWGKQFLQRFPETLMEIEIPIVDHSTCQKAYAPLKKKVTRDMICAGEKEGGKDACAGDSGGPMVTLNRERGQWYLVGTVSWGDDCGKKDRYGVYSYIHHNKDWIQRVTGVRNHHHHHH
Test: cell-based or functional assay
Numbered stars: 1 amine (or outer) side, 2 acyl side, 3 side chain; on linkers, the order of the positions; unused ones are H or OH. Bridge positions count the residues as written; N and C are the ends. Square brackets hold non-standard residues; d marks the D form. Ends that are not written are not given here. * marks the point of attachment. X15 = (3S)‑2‑azaspiro(4.4)nonane‑3‑carboxylic acid, O=C([C@@H]1CC2(CCCC2)CN1[*:1])[*:2]; Pro(cis-4-CF3) = O=C(O)[C@@H]1C[C@H](C(F)(F)F)CN1; C18 diacid = O=C(O)CCCCCCCCCCCCCCCCC(=O)*; Oic = O=C(O)[C@@H]1C[C@@H]2CCCC[C@@H]2N1; tBuAla = CC(C)(C)C[C@H](N)C(=O)O; Pen = CC(C)(S)[C@H](N)C(=O)O; Orn = NCCC[C@H](N)C(=O)O; Sar = CNCC(=O)O
Observable: human MASP1 IC50 (nM)
Give your result in nM as a bare value.

Query string: Which human MASP1 IC50 reading was recorded for the binder AICSRS[tBuAla]P[Pro(cis-4-CF3)]ICIPD-OH (disulfide 3-11; N-terminus assumed; SMILES CC[C@H](C)[C@H](NC(=O)[C@H](C)N)C(=O)N[C@H]1CSSC[C@@H](C(=O)N[C@H](C(=O)N2CCC[C@H]2C(=O)N[C@@H](CC(=O)O)C(=O)O)[C@@H](C)CC)NC(=O)[C@H]([C@@H](C)CC)NC(=O)[C@@H]2C[C@H](C(F)(F)F)CN2C(=O)[C@@H]2CCCN2C(=O)[C@H](CC(C)(C)C)NC(=O)[C@H](CO)NC(=O)[C@H](CCCNC(=N)N)NC(=O)[C@H](CO)NC1=O) [AIC+SRS-((tBu)A)-P-((4-CF3)P)-IC+IPD-OH] ?
Result string: 7.8

Query string: Note, next up: [Sar]ICSRSLP[Oic]I[Pen]IP[PEG4‑CH2CO2H (15 atoms)]-OH (disulfide 3-11) [((N-Me)G)-IC+SRSLP-(Oic)-I-(Pen)+IP-(PEG4-CH2CO2H (15 atoms))-OH]
Result string: 1.8

Query string: Note, next up: [Sar]ICSRS[tBuAla]P[X15]I[Pen]IPD-OH (disulfide 3-11; N-terminus assumed; SMILES CC[C@H](C)[C@H](NC(=O)CNC)C(=O)N[C@H]1CSSC(C)(C)[C@@H](C(=O)N[C@H](C(=O)N2CCC[C@H]2C(=O)N[C@@H](CC(=O)O)C(=O)O)[C@@H](C)CC)NC(=O)[C@H]([C@@H](C)CC)NC(=O)[C@@H]2CC3(CCCC3)CN2C(=O)[C@@H]2CCCN2C(=O)[C@H](CC(C)(C)C)NC(=O)[C@H](CO)NC(=O)[C@H](CCCNC(=N)N)NC(=O)[C@H](CO)NC1=O) [((N-Me)G)-IC+SRS-((tBu)A)-P-((3S)-2-azaspiro[4.4]nonane-3-carboxylic acid)-I-(Pen)+IPD-OH]
Result string: 17.1

Query string: Note, next up: {C18 diacid}-AICSRSLP[Oic]I[Pen]IPD[Orn]-OH (disulfide 3-11; SMILES CC[C@H](C)[C@H](NC(=O)[C@H](C)NC(=O)CCCCCCCCCCCCCCCCC(=O)O)C(=O)N[C@H]1CSSC(C)(C)[C@@H](C(=O)N[C@H](C(=O)N2CCC[C@H]2C(=O)N[C@@H](CC(=O)O)C(=O)N[C@@H](CCCN)C(=O)O)[C@@H](C)CC)NC(=O)[C@H]([C@@H](C)CC)NC(=O)[C@@H]2C[C@@H]3CCCC[C@@H]3N2C(=O)[C@@H]2CCCN2C(=O)[C@H](CC(C)C)NC(=O)[C@H](CO)NC(=O)[C@H](CCCNC(=N)N)NC(=O)[C@H](CO)NC1=O) [(ODD)-AIC+SRSLP-(Oic)-I-(Pen)+IPD-(Orn)-OH]
Result string: 1000
